testTarget: Nuclear receptor subfamily 1 group I member 2 (Homo sapiens) (UniProt O75469)
protocolSummary: Human pregnane X receptor (PXR) activation by small molecules, qHTS assay (AID 1346985); further: nearly all actives have a fitted effect of over 40% in size
measurementSetup: DPX-2 HepG2 CYP3A4-luciferase, 24 h; series mostly up to 38.3 µM
Inconclusive results are not listed. Activity calls are given as the source filed them. The call rests on the fitted dose curve; in most records, active means well fitted activation curve with a large enough effect in the repeat runs; inconclusive means weak or mixed curves; inactive means flat fitted curve, though single readings scatter.
Select the matching outcome among TRUE (active), FALSE (inactive)

{"compound": "O=C(O)c1cc(-c2ccc(F)cc2F)ccc1O", "testTarget": "Nuclear receptor subfamily 1 group I member 2 (Homo sapiens) (UniProt O75469)", "labelValue": "FALSE"}

Input line: Which result was noted for this compound in the test: CC(C(=O)O)c1ccc2c(c1)[nH]c1ccc(Cl)cc12 (stereo unspecified)
Output line: FALSE

Input line: Hi, do you know how CCCCN(CCCC)CC(O)c1cc(Cl)cc2c1-c1ccc(Cl)cc1/C2=C/c1ccc(Cl)cc1 (stereo unspecified) came out in this test?
Output line: TRUE

Input line: What outcome does the record of this test show for C#C[C@]1(OC(C)=O)CC[C@H]2[C@@H]3CCC4=C/C(=N/O)CC[C@@H]4[C@H]3CC[C@@]21CC ?
Output line: TRUE

Input line: Recorded test outcome, item CCCCC/C=C\C/C=C\CCCCCCCC(=O)O
Output line: FALSE

Input line: Hi, sorry to bother you, what did the test record for C[C@@H](O)[C@H](N)C(=O)O ?
Output line: FALSE

Input line: Returns: the outcome recorded for CCCCCCCCCCCCCC[N+](C)(C)Cc1ccccc1 in this assay.
Output line: FALSE

Input line: Any idea what this test logged for Cc1c(C)c2c(c(C)c1OC(=O)c1cccnc1)CC[C@@](C)(CCC[C@H](C)CCC[C@H](C)CCCC(C)C)O2 ?
Output line: FALSE

Input line: Tell me the assay call for Cc1cc(C(C)(C)C)cc(C)c1CC1=NCCN1 please.
Output line: FALSE

Input line: Could you please tell me the result logged for Nc1nc2c(ncn2COCCO)c(=O)[nH]1 in this assay?
Output line: FALSE

Input line: Could you please tell me the result logged for CCCCC(CC)CN1CN(CC(CC)CCCC)CC(C)(N)C1 (stereo unspecified) in this assay?
Output line: FALSE
